- System: BT-549
- PROTOCOL DETAILS: NCI tumour cell line growth inhibition, 48 h
The source made the active and inactive calls. Rule as the data show it: active = GI50 up to about 1.1 µM and inactive = higher.

| COMPOUND | GI50 |
| --- | --- |
| O=C(CN1CCOCC1)Nc1ccc2c(c1)C1Oc3ccccc3CC1CO2 (centres undefined) | 38.1 µM (inactive) |
| Clc1ccc(OCc2nnc(CCCCCCCCc3nnc(COc4ccc(Cl)cc4)o3)o2)cc1 | > 100 µM (inactive) |
| Nc1ncc(Br)c(NCC2(CO)CCC2)n1 | > 100 µM (inactive) |
| COc1ccc(Cc2c(N)[nH]c(=O)n(C)c2=O)cc1 | > 100 µM (inactive) |
| COC1CC(OC2C(C)OC(OC3C(C)OC(OC4C(C)OC(O[C@H]5CC[C@@]6(C)C(=CC[C@]7(O)[C@@H]6C[C@@H](OC(=O)/C=C/c6ccccc6)[C@@]6(C)[C@]7(O)CC[C@@]6(O)C(C)=O)C5)CC4OC)CC3OC)CC2OC)OC(C)C1O (some centres undefined) | > 12.5 µM (inactive) |
| COC1=C(OC)C(=O)c2cc(C)c(=O)c(C)cc2C1=O | 15.2 µM (inactive) |
| COc1cc(C2SCC(=O)N2c2ccc(NC(C)=O)cc2)cc(OC)c1OC (centres undefined) | 36.6 µM (inactive) |
| CC(=O)NCCc1c(-c2[nH]c3ccccc3c2CCNC(C)=O)[nH]c2ccccc12 | > 100 µM (inactive) |
| CCOC(=O)CC/C(C)=N\n1c(Cc2ccc(Cl)cc2)n[nH]c1=O | > 100 µM (inactive) |
